Tested on: Raw 264.7 cell
Experimental Protocol: WST (water-soluble tetrazolium) analysis, relative cell viability
Assay type: cell-based
Measurement Conditions: 100 ng/mL LPS and compounds 24 hours
Recorded Metric: Relative Cell Viability (%)
A number alone suffices; assume %.

Worked set:
# Compound, Unit Of Measurement, Relative Cell Viability (%)
data = [
    ("CC1(C)Oc2cc(O)ccc2C2C1=CCn1c(=O)n(-c3ccc4c(c3)OCO4)c(=O)n12 (centres unmarked) [Compound 2k]", "%", 121),
    ("CC(=O)c1ccc(-n2c(=O)n3n(c2=O)C2C(=CC3)C(C)(C)Oc3cc(O)ccc32)cc1 (centres unmarked) [Compound 2j]", "%", 111),
    ("CC1(C)Oc2cc(O)ccc2C2C1=CCn1c(=O)n(-c3ccccc3)c(=O)n12 (centres unmarked) [Compound 1d, inflachromene]", "%", 105),
    ("COc1cccc(-n2c(=O)n3n(c2=O)C2C(=CC3)C(C)(C)Oc3cc(O)ccc32)c1 (centres unmarked) [Compound 2f]", "%", 118),
    ("CC1(C)Oc2cc(O)ccc2C2C1=CCn1c(=O)n(Cc3ccccc3)c(=O)n12 (centres unmarked) [Compound 2b]", "%", 106),
]

Could you tell me which Relative Cell Viability (%) is on file for CC1(C)Oc2cc(O)ccc2C2C1=CCn1c(=O)n(-c3ccccc3I)c(=O)n12 (centres unmarked) [Compound 2d] ?
109

Could you tell me which Relative Cell Viability (%) is on file for COc1ccccc1-n1c(=O)n2n(c1=O)C1C(=CC2)C(C)(C)Oc2cc(O)ccc21 (centres unmarked) [Compound 2e] ?
115

Could you tell me which Relative Cell Viability (%) is on file for CC1(C)Oc2cc(O)ccc2C2C1=CCn1c(=O)n(-c3ccc(C(F)(F)F)cc3)c(=O)n12 (centres unmarked) [Compound 2m] ?
106

----------
Tested on: TNF-α secretion in Raw264.7 cell
Experimental Protocol: ELISA of secreted TNF-α
Type: cell-based
Measurement Conditions: Mus musculus, LPS 100 ng/mL, compounds 10 μM, read-out: TNF-α Inhibition Rate (%)
Procedure: Thus, in order to additionally confirm the inflammation inhibitory effects of Compounds 2f to 2l, the inhibition rate of TNF-α secretion was quantitatively measured by ELISA. Cells were treated with each Compound 1d, or 2f to 2l, and LPS for 24 hours, followed by ELISA for TNF-α present in the culture solution. […] Standard curve was plotted by the dose-dependent treatment of the control TNF-α protein provided with the ELISA kit. Blank value was measured by adding solutions without TNF-α substrate. […]
Recorded Metric: inhibition at 10 µM (%)
A number alone suffices; assume %.

# Compound, inhibition at 10 µM, %
data = [
    ("CC1(C)Oc2cc(O)ccc2C2C1=CCn1c(=O)n(-c3ccc4c(c3)OCO4)c(=O)n12 (centres unmarked) [Compound 2k]", 46),
]

I'm curious: which inhibition at 10 µM was measured for Cc1ccc(-n2c(=O)n3n(c2=O)C2C(=CC3)C(C)(C)Oc3cc(O)ccc32)cc1 (centres unmarked) [Compound 2i] tested on TNF-α secretion in Raw264.7 cell?
45

I'm curious: which inhibition at 10 µM was measured for COc1cccc(-n2c(=O)n3n(c2=O)C2C(=CC3)C(C)(C)Oc3cc(O)ccc32)c1 (centres unmarked) [Compound 2f] tested on TNF-α secretion in Raw264.7 cell?
38

I'm curious: which inhibition at 10 µM was measured for CC1(C)Oc2cc(O)ccc2C2C1=CCn1c(=O)n(-c3ccc(F)cc3)c(=O)n12 (centres unmarked) [Compound 2h] tested on TNF-α secretion in Raw264.7 cell?
44

I'm curious: which inhibition at 10 µM was measured for COc1ccc(-n2c(=O)n3n(c2=O)C2C(=CC3)C(C)(C)Oc3cc(O)ccc32)cc1 (centres unmarked) [Compound 2g] tested on TNF-α secretion in Raw264.7 cell?
44

I'm curious: which inhibition at 10 µM was measured for CC1(C)Oc2cc(O)ccc2C2C1=CCn1c(=O)n(-c3ccccc3)c(=O)n12 (centres unmarked) [Compound 1d, inflachromene] tested on TNF-α secretion in Raw264.7 cell?
43

I'm curious: which inhibition at 10 µM was measured for COc1cc(OC)cc(-n2c(=O)n3n(c2=O)C2C(=CC3)C(C)(C)Oc3cc(O)ccc32)c1 (centres unmarked) [Compound 2l] tested on TNF-α secretion in Raw264.7 cell?
60

I'm curious: which inhibition at 10 µM was measured for CC(=O)c1ccc(-n2c(=O)n3n(c2=O)C2C(=CC3)C(C)(C)Oc3cc(O)ccc32)cc1 (centres unmarked) [Compound 2j] tested on TNF-α secretion in Raw264.7 cell?
68
